Provenance of the data: patent US4654362A

target: guinea pig trachea (β2) (Cavia porcellus, UniProt Q8K4Z4); construct: The trachea was dissected from guinea-pigs; from tissue; host or cells: guinea-pig tracheal rings (tracheal smooth muscle); assay: Guinea-pig tracheal ring test: inhibition of isoprenaline-induced relaxation (β2-adrenergic receptor blocking activity, in vitro); conditions: ratio of ED50 trachea (β2) to ED50 right atrium (β1), index of cardioselectivity
Sequence (Q8K4Z4 whole entry): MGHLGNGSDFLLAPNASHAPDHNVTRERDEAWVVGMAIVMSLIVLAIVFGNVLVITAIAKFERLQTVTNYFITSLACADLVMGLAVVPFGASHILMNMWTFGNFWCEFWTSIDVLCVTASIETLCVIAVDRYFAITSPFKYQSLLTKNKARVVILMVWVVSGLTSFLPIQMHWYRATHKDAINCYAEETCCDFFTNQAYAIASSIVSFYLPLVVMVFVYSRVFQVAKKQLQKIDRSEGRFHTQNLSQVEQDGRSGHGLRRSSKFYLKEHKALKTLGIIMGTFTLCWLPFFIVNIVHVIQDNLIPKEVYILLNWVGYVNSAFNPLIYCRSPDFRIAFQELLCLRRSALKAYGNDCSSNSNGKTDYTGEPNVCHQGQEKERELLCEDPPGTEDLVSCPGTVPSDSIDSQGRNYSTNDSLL
Examples of compounds with documented β2 /β1 follow.

Examples from the recorded data:
>>> df
                                   compound  measured_result
0  OC(CNCC(O)C1CCc2ccccc2O1)C1CCc2ccccc2O1 (stereo not drawn) [Compound 77]            4,074
1  Cc1ccc2c(c1)CCC(C(O)CNCC(O)C1CCc3ccccc3O1)O2 (stereo not drawn) [Compound 89]           20,698
2  OC(CNCC(O)C1CCc2ccccc2O1)C1CCc2ccccc2O1 (stereo not drawn) [Compound 74]           12,500
3  Cc1ccc2c(c1)OC(C(O)CNCC(O)C1CCc3ccccc3O1)CC2 (stereo not drawn) [Compound 98]            2,400
4  Oc1ccc2c(c1)CCC(C(O)CNCC(O)C1CCc3ccccc3O1)O2 (stereo not drawn) [Compound 130]             1000
5  CC(O)(CNCC(O)C1CCc2ccccc2O1)C1CCc2ccccc2O1 (stereo not drawn) [Compound 92]           12,500

Value of measured β2 /β1 for the entry Cc1cc(C)c2c(c1)OC(C(O)CNCC(O)C1CCc3ccccc3O1)CC2 (stereo not drawn) [Compound 103] : > 4000

Value of measured β2 /β1 for the entry Cc1ccc2c(c1)OC(C(O)CNCC(O)C1CCc3ccccc3O1)CC2 (stereo not drawn) [Compound 97] : 7,042

Value of measured β2 /β1 for the entry Cc1ccc2c(c1)CCC(C(O)CNCC(O)C1CCc3ccccc3O1)O2 (stereo not drawn) [Compound 90] : ≥ 25,000

====

biological target: guinea pig trachea (β2) (Cavia porcellus); construct: The trachea was dissected from guinea-pigs; from tissue; host or cells: guinea-pig tracheal rings (tracheal smooth muscle); assay: Guinea-pig tracheal ring test: inhibition of isoprenaline-induced relaxation (β2-adrenergic receptor blocking activity, in vitro); details: tracheal ring, methacholine 1 μg/ml, isoprenaline 0.08 μg/ml, 30 min, 35° C., probit analysis; read-out: ED50 value on guinea pig trachea (β2) (converted)
Examples of compounds with documented IC50 follow.
Kindly answer with a numeric value in µM, unit omitted.

>>> df
                                   compound  measured_result
0  CC(=O)Nc1ccc2c(c1)CCC(C(O)CNCC(O)C1CCc3ccccc3O1)O2 (centres unmarked) [Compound 95]           0.0938

# context switch: different compound, same IC50
Value of measured IC50 for the entry Cc1ccc2c(c1)CCC(C(O)CNCC(O)C1CCc3cc(C)ccc3O1)O2 (centres unmarked) : 3.27

====

Examples of molecules with documented β2 /β1 follow.
biological target: guinea pig trachea (β2) (Cavia porcellus, UniProt Q8K4Z4); construct: The trachea was dissected from guinea-pigs; from tissue; host or cells: guinea-pig tracheal rings (tracheal smooth muscle); assay: Guinea-pig tracheal ring test: inhibition of isoprenaline-induced relaxation (β2-adrenergic receptor blocking activity, in vitro); conditions: ratio of ED50 trachea (β2) to ED50 right atrium (β1), index of cardioselectivity

In [3]: df
Out[3]:
                                   molecule  metric_name  measured_result
0  CC(O)(CNCC(C)(O)C1CCc2ccccc2O1)C1CCc2ccccc2O1 (centres unmarked)       β2 /β1            4,166

Sample OC(CNCC(O)C1CCc2ccccc2O1)C1CCc2ccccc2O1 (centres unmarked) [Compound 82] , system: guinea pig trachea (β2) (Cavia porcellus, UniProt Q8K4Z4). Its β2 /β1 is > 1,000

Sample Cc1cc(C)c2c(c1)OC(C(O)CNCC(O)C1CCc3ccccc3O1)CC2 (centres unmarked) [Compound 106] , system: guinea pig trachea (β2) (Cavia porcellus, UniProt Q8K4Z4). Its β2 /β1 is > 1000

Sample OC(CNCC(O)C1CCc2ccccc2O1)C1CCc2ccccc2O1 (centres unmarked) [Compound 75] , system: guinea pig trachea (β2) (Cavia porcellus, UniProt Q8K4Z4). Its β2 /β1 is 2,154

Sample CC(=O)Nc1ccc2c(c1)CCC(C(O)CNCC(O)C1CCc3ccccc3O1)O2 (centres unmarked) [Compound 96] , system: guinea pig trachea (β2) (Cavia porcellus, UniProt Q8K4Z4). Its β2 /β1 is 108

Sample Cc1cc(C)c2c(c1)OC(C(O)CNCC(O)C1CCc3ccccc3O1)CC2 (centres unmarked) [Compound 104] , system: guinea pig trachea (β2) (Cavia porcellus, UniProt Q8K4Z4). Its β2 /β1 is > 1923

Sample OC(CNCC(O)C1CCc2ccccc2O1)C1CCc2ccccc2O1 (centres unmarked) [Compound 81] , system: guinea pig trachea (β2) (Cavia porcellus, UniProt Q8K4Z4). Its β2 /β1 is 3,938

Sample OC(CNCC(O)C1CCc2ccccc2O1)C1CCc2ccccc2O1 (centres unmarked) [Compound 83] , system: guinea pig trachea (β2) (Cavia porcellus, UniProt Q8K4Z4). Its β2 /β1 is > 5,435

====

target: guinea pig trachea (β2) (Cavia porcellus, UniProt Q8K4Z4); construct: The trachea was dissected from guinea-pigs; from tissue; host or cells: guinea-pig tracheal rings (tracheal smooth muscle); test: Guinea-pig tracheal ring test: inhibition of isoprenaline-induced relaxation (β2-adrenergic receptor blocking activity, in vitro); conditions: ratio of ED50 trachea (β2) to ED50 right atrium (β1), index of cardioselectivity
Metric name: β2 /β1

Examples from the recorded data:
In [3]: df
Out[3]:
                                   compound  metric_name  measured_result
0  OC(CNCC(O)C1CCc2ccccc2O1)C1CCc2ccccc2O1 (stereo not drawn) [Compound 138]       β2 /β1           > 1000
1  N#Cc1ccc2c(c1)CCC(C(O)CNCC(O)C1CCc3ccccc3O1)O2 (stereo not drawn) [Compound 51]       β2 /β1            > 252
2  Cc1ccc2c(c1)CCC(C(O)CNCC(O)C1CCc3ccccc3O1)O2 (stereo not drawn) [Compound 93]       β2 /β1           13,750
3  Cc1ccc2c(c1)CCC(C(O)CNCC(O)C1CCc3cc(C)ccc3O1)O2 (stereo not drawn) [Compound 85]       β2 /β1            5,652
4  Cc1ccc2c(c1)OC(C(O)CNCC(O)C1CCc3ccccc3O1)CC2 (stereo not drawn) [Compound 99]       β2 /β1         ≥ 15,873

# context switch: different compound, same β2 /β1
Value of measured β2 /β1 for the entry CC(=O)Nc1ccc2c(c1)CCC(C(O)CNCC(O)C1CCc3ccccc3O1)O2 (stereo not drawn) [Compound 95] : 129

====

target: guinea pig atrium (β1) (Cavia porcellus, UniProt H0W3H1); construct: Spontaneously beating right atria were dissected from guinea-pigs; from tissue; host or cells: guinea-pig right atrium (strip including the sinoatrial node); assay: Guinea-pig right atrium test: inhibition of isoprenaline-induced increase in heart rate (β1-adrenergic receptor blocking activity, in vitro); settings: isolated right atrium, 30 min incubation, 37.5° C., estimated graphically, read-out: ED50 value on guinea pig atrium (β1) (converted)
Sequence (H0W3H1 1-470): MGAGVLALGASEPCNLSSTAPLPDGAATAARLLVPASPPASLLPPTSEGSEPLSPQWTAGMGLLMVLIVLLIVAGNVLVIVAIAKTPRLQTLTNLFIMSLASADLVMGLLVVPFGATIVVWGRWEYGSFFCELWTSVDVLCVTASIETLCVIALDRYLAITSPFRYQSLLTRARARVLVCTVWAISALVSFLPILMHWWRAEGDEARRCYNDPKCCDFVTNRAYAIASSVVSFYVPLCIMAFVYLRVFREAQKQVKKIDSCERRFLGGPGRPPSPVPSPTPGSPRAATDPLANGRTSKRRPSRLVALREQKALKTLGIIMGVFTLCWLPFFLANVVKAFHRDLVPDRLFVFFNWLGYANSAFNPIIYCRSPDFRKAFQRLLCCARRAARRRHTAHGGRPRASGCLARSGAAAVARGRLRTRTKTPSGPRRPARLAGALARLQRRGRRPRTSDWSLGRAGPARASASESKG
Metric name: IC50 (nM)
Kindly answer with a numeric value in nM, unit omitted.

>>> df
                                   compound                           measured_target  result_units  measured_result
0  OC(CNCC(O)C1CCc2ccccc2O1)C1CCc2ccccc2O1 (stereo not drawn) [Compound 74]  guinea pig atrium (β1) (Cavia porcellus, UniProt H0W3H1)            nM             0.65
1  N#Cc1ccc2c(c1)CCC(C(O)CNCC(O)C1CCc3ccccc3O1)O2 (stereo not drawn)  guinea pig atrium (β1) (Cavia porcellus, UniProt H0W3H1)            nM             6.34

Value of measured IC50 for the entry OC(CNCC(O)C1CCc2cc(F)ccc2O1)C1CCc2ccccc2O1 (stereo not drawn) : 2.06

Value of measured IC50 for the entry CC(=O)Nc1ccc2c(c1)CCC(C(O)CNCC(O)C1CCc3ccccc3O1)O2 (stereo not drawn) [Compound 95] : 0.727

Value of measured IC50 for the entry CC(O)(CNCC(O)C1CCc2ccccc2O1)C1CCc2ccccc2O1 (stereo not drawn) : 1.04

Value of measured IC50 for the entry Cc1ccc2c(c1)CCC(C(O)CNCC(O)C1CCc3ccccc3O1)O2 (stereo not drawn) [Compound 89] : 1.12

Value of measured IC50 for the entry OC(CNCC(O)C1CCc2ccccc2O1)C1CCc2ccccc2O1 (stereo not drawn) [Compound 82] : 6.77

Value of measured IC50 for the entry CC(=O)Nc1ccc2c(c1)CCC(C(O)CNCC(O)C1CCc3ccccc3O1)O2 (stereo not drawn) [Compound 96] : 3.05
